details: buffer; pH 7.4; 200.0 µM
REPORTED METRIC: solubility kinetic

**Q:** Kindly indicate its recorded solubility kinetic. Item: Cl.O=c1cn[nH]c2ccccc12
**A:** > 27.4 µg/mL

**Q:** For the compound O=C(Cn1c(=O)n(CC2CS2)c2ccccc21)N1CCCCC1 (stereo not drawn) , report solubility kinetic.
**A:** > 49.7 µg/mL

**Q:** Name the recorded solubility kinetic of the compound listed here: O=P(c1ccccc1)(c1ccccc1)C(O)c1ccccn1 (stereo not drawn)
**A:** > 46.4 µg/mL

**Q:** Give the measured solubility kinetic for O=C(/C=C/c1ccccc1)N(Cc1cccs1)C1CCS(=O)(=O)C1 (stereo not drawn)
**A:** > 54.2 µg/mL

**Q:** Hello, please tell me recorded solubility kinetic for this one: CCOC(=O)c1ccc(N2C(=O)CC(C)(CC)CC2=O)cc1
**A:** > 45.5 µg/mL

**Q:** Provide only the value of recorded solubility kinetic for NS(=O)(=O)c1cc2c(cc1C(F)(F)F)NC(Cc1ccccc1)NS2(=O)=O (stereo not drawn)
**A:** > 63.2 µg/mL

**Q:** // fetch solubility kinetic given entry COCCNC(=O)CN1C2CCC1CC(O)(c1cccnc1)C2 (stereo not drawn)
**A:** > 47.9 µg/mL

**Q:** Report solubility kinetic, nothing else, for this compound: Cc1noc(NS(=O)(=O)c2ccc(NC(=O)c3ccccc3NS(=O)(=O)c3ccc(F)cc3)cc2)c1C
**A:** > 81.7 µg/mL

**Q:** For CCCCN(C)C(=O)C1CCN(Cc2cccnc2)CC1 , write its solubility kinetic.
**A:** > 43.4 µg/mL

**Q:** Tell us which solubility kinetic value is on record for CCOC(=O)c1ccc(NC(=O)c2cc(=O)[nH]c3ccccc23)cc1
**A:** < 0.4 µg/mL

**Q:** Quickly give me recorded solubility kinetic for COc1ccc(Br)c(C(=O)NC(C)(C)CO)c1
**A:** > 45.3 µg/mL

**Q:** Name the recorded solubility kinetic of the item Cc1noc(C)c1COc1ccc(C(=O)N2CCCC(C(N)=O)C2)cc1 (stereo not drawn) in your answer.
**A:** > 53.6 µg/mL

**Q:** # return recorded solubility kinetic for input O=C1CN(C(=O)COC(=O)Cc2ccccc2)c2ccccc2N1
**A:** > 48.7 µg/mL

**Q:** Specify measured solubility kinetic for O=C1CCCC(=O)N1c1ccc(F)cc1 .
**A:** > 31.1 µg/mL

**Q:** State, in one line, measured solubility kinetic of CC(C)Cn1c(=S)[nH]c2cc(C(=O)O)ccc2c1=O
**A:** > 41.7 µg/mL

**Q:** Fill in solubility kinetic for record O=C(NCc1cccnc1)C1CC(c2ccccc2Cl)=NO1 (stereo not drawn)
**A:** > 47.4 µg/mL

**Q:** Report solubility kinetic for C=CCNC(=O)N1CCc2[nH]c3ccc(F)cc3c2C1
**A:** > 41 µg/mL

**Q:** Write down solubility kinetic measured for item COc1ccccc1C(=O)Nc1nc2ccccc2s1
**A:** < 0.3 µg/mL

**Q:** Answer with reported solubility kinetic of N#CCC(=O)N1CCN(Cc2ccc3c(c2)OCO3)CC1
**A:** 1.6 µg/mL

**Q:** // Input: CCOc1ccccc1NCc1cc(=O)oc2cc(C)ccc12 . Output its solubility kinetic only.
**A:** 6.2 µg/mL

**Q:** Tell me solubility kinetic reported for COc1cccc(OC)c1C(=O)Nc1sc2c(c1C#N)CCC2
**A:** 0.7 µg/mL

**Q:** State its solubility kinetic for this compound: O=C(Nc1cccc(F)c1)NC1CCCCCCC1
**A:** 9 µg/mL

**Q:** # return recorded solubility kinetic for input CN(C)c1nc(N(C)C)nc(N(C#N)Cc2ccc(Cl)cc2)n1
**A:** 0.3 µg/mL

**Q:** Write down solubility kinetic measured for item NC(=O)COc1ccc2oc(=O)cc(-c3cc4ccccc4o3)c2c1
**A:** 1 µg/mL

**Q:** Specify solubility kinetic for Cc1nc(SCc2ccccc2)c2ccsc2n1 and stop.
**A:** < 0.3 µg/mL

**Q:** Give reported solubility kinetic value for COc1ccccc1CNCc1ccc(OC)c2ccccc12
**A:** 33.7 µg/mL

**Q:** Hello, please tell me recorded solubility kinetic for this one: CC1CCCCC1NC(=O)COC(=O)c1ccc2c(c1)NC(=O)CS2 (stereo not drawn)
**A:** 9.8 µg/mL

**Q:** Please look at this compound and report its solubility kinetic: COc1ccc(S(=O)(=O)N2CCN3CCCC3C2)cc1 (stereo not drawn)
**A:** 41.8 µg/mL

Reference for the values: PubChem BioAssay AID1996
